Header: IC50 / Cytochrome P450 2D6 (Homo sapiens, UniProt P10635) / multiple publications

Clc1ccc(NC2=NN=C(OCc3ccncc3)C3OC=CC23)cc1 (stereo not shown) : 0.78 µM
CC[C@@H](C#N)NC(=O)c1ccc(-c2nc(Nc3cnn(C4CCN(C)CC4)c3)ncc2C)cc1 : > 50 µM
Cc1cnc2nc(CC3=C(O)CC(CCc4cc(F)c(C(C)(C)C#N)c(F)c4)(C4CCCC4)OC3=O)nn2c1 (single isomer, unassigned) : ≤ 0.074 µM
CC(C)Nc1ncnc2[nH]cc(C(=O)c3ccc(NC4CCCCC4)nc3F)c12 : > 10 µM
C=C1C[C@@](C)(c2cncc(NC(=O)c3ncc(C(F)(F)F)cc3Cl)c2)N=C(N)S1 : > 20 µM

The value of IC50 measured for the compound CCn1cc(Nc2ccc(Cc3c[nH]c4ncnc(C5CC5)c34)c(F)n2)cn1 turned out to be > 10 µM

Reported IC50 of NC(=O)c1cccc2cn(-c3ccc([C@]4(F)CCCNC4)cc3)nc12 (single isomer, unassigned) : > 10 µM

Sample COc1cc(F)cc([C@@H](CO)NC(=O)[C@@H](C)N2Cc3ccc(-c4nc(NC5CCC(F)(F)CC5)ncc4F)c(F)c3C2=O)c1 ; IC50 observed: > 10 µM

C[C@]1(c2cc(NC(=O)c3cnc(OCF)cn3)ccc2F)N=C(N)OCC12CC(F)(F)C2 yielded IC50 of ≥ 10 µM

Note to self: IC50 recorded for CCc1ccc(Nc2ccc(Cc3c[nH]c4ncnc(C)c34)c(F)n2)cn1 was > 10 µM
